- System Name: T1, recombinant human RANKL (soluble, Gly136-Asp317, N-terminal 10 His, expressed in CHO cells) (human, UniProt O14788 136-317)
- T1 construct: residues between secretion signal and His tag are not described; also called hRANKL; hRNAKL
- T1 sequence: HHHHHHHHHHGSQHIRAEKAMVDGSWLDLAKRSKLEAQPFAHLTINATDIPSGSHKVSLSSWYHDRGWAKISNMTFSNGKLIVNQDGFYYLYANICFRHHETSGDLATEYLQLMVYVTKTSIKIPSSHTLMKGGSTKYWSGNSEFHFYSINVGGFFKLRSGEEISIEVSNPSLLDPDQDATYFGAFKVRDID
- Measurement Protocol: direct ELISA, human RANKL coated 1 µg/ml

[
  {
    "Binder": "114-7.37.26 (antibody, V domains shown, Murine monoclonal antibody from hybridoma) VH: QVQLQQSGAELASPGASVKLSCKTSGYTFTTYWLQWVKQRPGQGLEWIGAIYPGPGNTKYTQKFKDKATLTADKSASTAYMQLSSLTSEDSAVYYCARRGSRRGIAYWGQGTLVTVSA VL: NIVLTQSPASLAVSLGQRATISCRASESVDSYGRSFMHWYQQRPGQPPTLLIYLASNLESGVPARFSGSGSRTDFTLTIDPVEADDAATYYCQQDNEDPYTFGGGTKLEIK",
    "Readout Unit": "µg/mL",
    "EC50": 0.0159
  }
]
